# maps each entry to its IC50
biological target: p38alpha (Homo sapiens, UniProt Q16539)
Sequence (Q16539 whole entry): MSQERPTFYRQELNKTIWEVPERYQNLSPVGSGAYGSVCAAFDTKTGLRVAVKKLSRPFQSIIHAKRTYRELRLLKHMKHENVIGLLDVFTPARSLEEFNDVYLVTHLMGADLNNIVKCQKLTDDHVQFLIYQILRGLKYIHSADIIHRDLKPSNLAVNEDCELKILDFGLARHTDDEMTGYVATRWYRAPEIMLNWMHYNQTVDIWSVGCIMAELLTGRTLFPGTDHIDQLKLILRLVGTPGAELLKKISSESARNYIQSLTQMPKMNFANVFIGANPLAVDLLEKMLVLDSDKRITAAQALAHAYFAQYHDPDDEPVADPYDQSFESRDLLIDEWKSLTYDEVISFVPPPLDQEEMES
Structures can show the parent of a compound that is named as a salt.

| molecule | IC50 |
| --- | --- |
| COc1c(CO)cc(C(C)(C)C)cc1NC(=O)N[C@H]1CC[C@@H](Oc2ccc3nnc([C@]4(C)CCCN4C)n3c2)c2ccccc21 [Example 3, hydrochloride salt] | < 1 nM |
| COc1c(NC(C)=O)cc(C(C)(C)C)cc1NC(=O)N[C@H]1CC[C@@H](Oc2ccc3nnc([C@]4(C)CCCN4C)n3c2)c2ccccc21 [Example 8] | 1 to 10 nM |
| CNC(=O)c1cc(C(C)(C)C)cc(NC(=O)N[C@H]2CC[C@@H](Oc3ccc4nnc([C@@H]5CCCN5C)n4c3)c3ccccc32)c1OC [Example 7, hydrochloride salt] | < 1 nM |
| CC(=O)OCc1cc(NC(=O)N[C@H]2CC[C@@H](Oc3ccc4nnc([C@@H]5CCCN5C)n4c3)c3ccccc32)cc(C(C)(C)C)c1 [Example 43] | < 1 nM |
| CNC(=O)c1cc(NC(=O)N[C@H]2CC[C@@H](Oc3ccc4nnc([C@]5(C)CCCN5C)n4c3)c3ccccc32)cc(C(C)(C)C)c1 [Example 55] | < 1 nM |
| CN(C)Cc1cc(NC(=O)N[C@H]2CC[C@@H](Oc3ccc4nnc([C@]5(C)CCCN5C)n4c3)c3ccccc32)cc(C(C)(C)C)c1 [Example 65] | < 1 nM |
| COC(=O)c1cc(NC(=O)N[C@H]2CC[C@@H](Oc3ccc4nnc([C@@H]5CCCN5C)n4c3)c3ccccc32)cc(C(C)(C)C)c1 [Example 40] | < 1 nM |
| COc1c(NC(=O)N[C@H]2CC[C@@H](Oc3ccc4nnc([C@@H]5CCCN5C)n4c3)c3ccccc32)cc(C(C)(C)C)cc1N(CCO)S(C)(=O)=O [Example 17, formate salt] | 1 to 10 nM |
| CN1CC[C@H]1c1nnc2ccc(O[C@@H]3CC[C@H](NC(=O)Nc4cc(NS(C)(=O)=O)cc(C(C)(C)C)c4)c4ccccc43)cn12 [Example 63] | 1 to 10 nM |
| COC(=O)c1cc(NC(=O)N[C@H]2CC[C@@H](Oc3ccc4nnc([C@]5(C)CCCN5C)n4c3)c3ccccc32)cc(C(C)(C)C)c1 [Example 41] | 1 to 10 nM |
| COc1c(CO)cc(C(C)(C)C)cc1NC(=O)N[C@H]1CC[C@@H](Oc2ccc3nnc(C(C)(C)N(C)C)n3c2)c2ccccc21 [Example 4, hydrochloride salt] | < 1 nM |
| CC(C)N1CCCC[C@H]1c1nnc2ccc(O[C@@H]3CC[C@H](NC(=O)Nc4cc(NS(C)(=O)=O)cc(C(C)(C)C)c4)c4ccccc43)cn12 [Example 23] | 1 to 10 nM |
| CN1CCC[C@H]1c1nnc2ccc(O[C@@H]3CC[C@H](NC(=O)Nc4cc(N5CCOCC5)cc(C(C)(C)C)c4)c4ccccc43)cn12 [Example 58] | 1 to 10 nM |
| CC(C)(C)c1cc(NC(=O)N[C@H]2CC[C@@H](Oc3ccc4nnc([C@]5(C)CCCN5CCO)n4c3)c3ccccc32)cc(NS(C)(=O)=O)c1 [Example 32] | < 1 nM |
| CC(=O)OCc1cc(NC(=O)N[C@H]2CC[C@@H](Oc3ccc4nnc([C@]5(C)CCCN5C)n4c3)c3ccccc32)cc(C(C)(C)C)c1 [Example 44] | < 1 nM |
| CN(C)CCOCc1cc(NC(=O)N[C@H]2CC[C@@H](Oc3ccc4nnc([C@]5(C)CCCN5C)n4c3)c3ccccc32)cc(C(C)(C)C)c1 [Example 69] | < 1 nM |
| COc1c(NC(=O)N[C@H]2CC[C@@H](Oc3ccc4nnc(C(C)(C)N(C)C)n4c3)c3ccccc32)cc(C(C)(C)C)cc1NS(=O)(=O)C1CC1 [Example 14, formate salt] | 1 to 10 nM |
| Cc1c(NC(=O)N[C@H]2CC[C@@H](Oc3ccc4nnc([C@@H]5CCCN5C)n4c3)c3ccccc32)cc(C(C)(C)C)cc1NS(C)(=O)=O [Example 57] | < 1 nM |
| COc1c(NC(=O)N[C@H]2CC[C@@H](Oc3ccc4nnc(N5CCCCC5)n4c3)c3ccccc32)cc(C(C)(C)C)cc1N(CCN(C)C)S(C)(=O)=O [Example 60, formate salt] | 1 to 10 nM |
| CN1CCC[C@@]1(CO)c1nnc2ccc(O[C@@H]3CC[C@H](NC(=O)Nc4cc(NS(C)(=O)=O)cc(C(C)(C)C)c4)c4ccccc43)cn12 [Example 33] | < 1 nM |
| COCCS(=O)(=O)Nc1cc(C(C)(C)C)cc(NC(=O)N[C@H]2CC[C@@H](Oc3ccc4nnc(C(C)(C)N(C)C)n4c3)c3ccccc32)c1OC [Example 15, hydrochloride salt] | 1 to 10 nM |
